# Test system: BCL2allKO HCT116 cells reconstituted with Dox-inducible mC-BAK
# METHOD: Dox-induced cell death by IncuCyte imaging of SYTOX Green uptake (autoactivation)
# Type: cell-based, human
# CONDITION CONTEXT: mC-BAK BCL2allKO HCT116 + Dox + qVD; Dox 100 ng/mL; average, N = 3
Record form. Attribute: AUC (48 hr) of SYTOX Green counts/confluence. Fill in for each entry.

The cases that follow already have their AUC (48 hr) of SYTOX Green counts/confluence on record.
V74A (1): BAK missense mutant, WT-like; in cells as mCherry fusion (protein, left off: His6, C-terminal, kept, BAK missense mutant, WT-like; in cells as mCherry fusion) MASGQGPGPPRQECGEPALPSASEEQVAQDTEEVFRSYVFYRHQQEQEAEGVAAPADPEMVTLPLQPSSTMGQAGRQLAIIGDDINRRYDSEFQTMLQHLQPTAENAYEYFTKIATSLFESGINWGRVVALLGFGYRLALHVYQHGLTGFLGQVTRFVVDFMLHHCIARWIAQRGGWVAALNLGNG ... 79832.2
D83A (s): BAK missense mutant, autoactivation-impaired; in cells as mCherry fusion (protein, left off: His6, C-terminal, kept, in cells as mCherry fusion) MASGQGPGPPRQECGEPALPSASEEQVAQDTEEVFRSYVFYRHQQEQEAEGVAAPADPEMVTLPLQPSSTMGQVGRQLAIIGADINRRYDSEFQTMLQHLQPTAENAYEYFTKIATSLFESGINWGRVVALLGFGYRLALHVYQHGLTGFLGQVTRFVVDFMLHHCIARWIAQRGGWVAALNLGNG ... 54126.6
I81A (3): BAK missense mutant (protein, UniProt Q16611 2-211, looked up, variant I81A) Bcl-2 homologous …: ASGQGPGPPRQECGEPALPSASEEQVAQDTEEVFRSYVFYRHQQEQEAEGVAAPADPEMVTLPLQPSSTMGQVGRQLAIAGDDINRRYDSEFQTMLQHLQPTAENAYEYFTKIATSLFESGINWGRVVALLGFGYRLALHVYQHGLTGFLGQVTRFVVDFMLHHCIARWIAQRGGWVAALNLGNGPILNVLVVLGVVLLGQFVVRRFFKS ... 55640.5

Okay, next one:
AUC (48 hr) of SYTOX Green counts/confluence lookup needed for I81R (3): BAK missense mutant (protein, UniProt Q16611 2-211, looked up, variant I81R) Bcl-2 homologous …: ASGQGPGPPRQECGEPALPSASEEQVAQDTEEVFRSYVFYRHQQEQEAEGVAAPADPEMVTLPLQPSSTMGQVGRQLAIRGDDINRRYDSEFQTMLQHLQPTAENAYEYFTKIATSLFESGINWGRVVALLGFGYRLALHVYQHGLTGFLGQVTRFVVDFMLHHCIARWIAQRGGWVAALNLGNGPILNVLVVLGVVLLGQFVVRRFFKS , thanks.
331.061
